- Protocol description: TOR pathway GLN3 branch reporter MEP2-GFP changes – S. cerevisiae, multiplex flow cytometry, primary screen (AID 1867);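 also: median GFP channel fluorescence of barcode-gated MEP2-GFP cells measured by flow cytometry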
- Assay setup: S. cerevisiae MEP2-GFP strain, 3 h, at 10 µM, stronger effect = higher value, 100% means same as DMSO wells
Records with an inconclusive call do not appear.
Recorded GFP response vs DMSO for the following compounds
Observation type: GFP response vs DMSO (%)

- Cc1ccc(C)c(OCCCC(C)(C)C(=O)O)c1: 97.2
- Cc1cccc(C(=O)c2cccc(C)c2)c1: 103
- CCOC(=O)Cn1c(C)cc(=O)c2ccccc21: 114
- Cc1cc(O)c(C(C)C)cc1C1(c2cc(C(C)C)c(O)cc2C)OC(=O)c2ccccc21: 107
- OCC(O)CN1CCN(c2ccccc2)CC1 (centres undefined): 103
- CCN(CC)c1ccc([C@H]2[C@@H]3CCCC[C@]3(O)CCN2CC(=O)NCc2ccco2)cc1: 108
- O=c1[nH]c(=O)n([C@H]2C[C@H](O)[C@@H](CO)O2)cc1C(F)(F)F: 101
- COc1ccc(NC(=S)N2CCN(CCN3C(=O)c4cccc5cccc(c45)C3=O)CC2)cc1: 129
- COc1cc2cc(C)nc(Cc3cccc4ccccc34)c2cc1OC: 105
- c1ccc(Cn2ncc3c(Nc4ccccc4)ncnc32)cc1: 106
- C[N+](C)(C)CCCCCCCCCC[N+](C)(C)C: 129
- CCC(C(=O)Nc1ccc2c(c1)OCCO2)c1ccccc1 (centres undefined): 103
- CC(C)C(=O)Nc1c(O)c2ccccc2[nH]c1=O: 91.9
- COc1ccc(C2OC[C@H]3O[C@H](O)[C@H](NC(C)=O)[C@@H](O)[C@@H]3O2)cc1 (some centres undefined): 106
- C1COC(NC(C2CC2)C2CC2)=N1: 148
- O=C(O)CCCc1ccccc1: 96.2
- COc1ccc(C(=O)CC2OC(=O)c3c2ccc(OC)c3OC)cc1 (centres undefined): 100
- CSCC[C@H](NC(=O)NC1CCCC1)C(=O)O: 113
- CC(C)CC(NC(=O)c1cccc(Cl)c1)C(=O)O (centres undefined): 102
- CCOC(=O)C1=C(N)Oc2c(c(=O)[nH]c3ccccc23)C1c1ccccc1 (centres undefined): 106
- CCCCCC(O)c1cccc(OCc2ccc3ccccc3n2)c1 (centres undefined): 97.6
- COc1cc(NC(=S)NC(=O)c2cccs2)ccc1NC(=O)C(C)C: 108
- COc1ccc(/C=C2\CC/C(=C\c3ccc(OC)c(OC)c3)C2=O)cc1OC: 103
- CN(C)C(=O)Oc1ccc[n+](C)c1: 106

---

Recorded inhibition for the following molecules
- Assayed target: Integrin beta-1 (Homo sapiens) + Integrin alpha-4 (Homo sapiens) (UniProt P13612+P05556)
- Sequence (P05556 whole entry, looked up): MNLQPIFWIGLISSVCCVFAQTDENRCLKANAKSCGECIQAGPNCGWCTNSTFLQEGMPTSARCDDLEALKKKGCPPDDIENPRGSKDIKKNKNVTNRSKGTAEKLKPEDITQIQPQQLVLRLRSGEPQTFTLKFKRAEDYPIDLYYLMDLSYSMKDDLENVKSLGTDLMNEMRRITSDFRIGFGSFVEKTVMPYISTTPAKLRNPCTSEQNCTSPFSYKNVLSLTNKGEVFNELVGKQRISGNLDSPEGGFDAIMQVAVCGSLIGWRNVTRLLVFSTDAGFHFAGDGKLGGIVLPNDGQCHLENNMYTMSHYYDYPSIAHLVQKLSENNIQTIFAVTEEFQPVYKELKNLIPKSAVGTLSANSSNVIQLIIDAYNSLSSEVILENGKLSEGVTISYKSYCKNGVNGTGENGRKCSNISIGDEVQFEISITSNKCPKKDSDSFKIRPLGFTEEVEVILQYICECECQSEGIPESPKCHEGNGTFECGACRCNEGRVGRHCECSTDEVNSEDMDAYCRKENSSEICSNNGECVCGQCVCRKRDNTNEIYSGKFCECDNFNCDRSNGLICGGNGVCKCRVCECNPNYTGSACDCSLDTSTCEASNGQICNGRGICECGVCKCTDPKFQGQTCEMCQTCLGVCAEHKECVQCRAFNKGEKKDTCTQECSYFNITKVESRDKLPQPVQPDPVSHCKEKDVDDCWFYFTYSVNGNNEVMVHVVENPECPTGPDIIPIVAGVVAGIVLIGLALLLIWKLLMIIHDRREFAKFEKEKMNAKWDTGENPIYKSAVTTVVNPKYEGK
- Sequence (P13612 whole entry, looked up): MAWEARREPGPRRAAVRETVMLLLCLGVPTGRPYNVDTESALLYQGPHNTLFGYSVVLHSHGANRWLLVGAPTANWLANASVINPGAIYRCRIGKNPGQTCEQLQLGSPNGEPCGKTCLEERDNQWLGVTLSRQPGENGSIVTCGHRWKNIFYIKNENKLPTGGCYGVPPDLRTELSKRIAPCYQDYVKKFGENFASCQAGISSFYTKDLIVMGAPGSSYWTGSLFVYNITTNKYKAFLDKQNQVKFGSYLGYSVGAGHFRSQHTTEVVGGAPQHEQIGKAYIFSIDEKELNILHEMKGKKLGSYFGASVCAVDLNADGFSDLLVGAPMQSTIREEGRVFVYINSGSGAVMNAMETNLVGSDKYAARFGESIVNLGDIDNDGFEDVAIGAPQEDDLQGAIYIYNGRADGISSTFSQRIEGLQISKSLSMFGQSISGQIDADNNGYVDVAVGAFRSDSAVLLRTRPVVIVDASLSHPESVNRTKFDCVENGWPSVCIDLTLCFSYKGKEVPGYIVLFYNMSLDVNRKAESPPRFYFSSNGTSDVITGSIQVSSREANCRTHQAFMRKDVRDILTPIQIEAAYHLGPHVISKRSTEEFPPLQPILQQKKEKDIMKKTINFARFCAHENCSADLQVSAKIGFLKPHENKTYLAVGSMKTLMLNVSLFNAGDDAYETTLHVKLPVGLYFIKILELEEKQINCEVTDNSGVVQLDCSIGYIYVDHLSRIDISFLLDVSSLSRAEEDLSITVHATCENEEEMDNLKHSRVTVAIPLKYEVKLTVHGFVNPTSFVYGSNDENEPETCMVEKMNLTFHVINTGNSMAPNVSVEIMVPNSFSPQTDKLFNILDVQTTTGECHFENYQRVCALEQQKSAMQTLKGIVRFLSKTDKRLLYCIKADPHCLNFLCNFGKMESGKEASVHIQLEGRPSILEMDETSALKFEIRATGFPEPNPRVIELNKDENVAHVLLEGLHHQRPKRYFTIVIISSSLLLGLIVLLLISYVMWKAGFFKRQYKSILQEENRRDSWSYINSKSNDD
- Protocol description: alpha4beta1 integrin LIBS antibody binding reduction – U937 cells, HUTS-21 mAb, flow cytometry, validation set, VLA-4 allosteric modulator project, pilot screen (AID 2674);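 also: antibody binding induced by the VLA-4 ligand LDV present at three times its Kd; 0% = LDV ligand with antibody and no compound and 100% = antibody without LDV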
- Assay setup: HUTS-21 LIBS mAb binding, at 6.7 µM, stronger effect = higher value, binding induced by LDV ligand
Observation type: inhibition (%)

* CC(C)OC(=O)CC12CN3CN(C1)CC(CC(=O)OC(C)C)(C3)C2=O | -0.43
* C=CCOC(=O)C1=C(C)NC(=O)NC1/C=C/c1ccccc1OC (stereo not given) | -1.09
* CC(=O)NC(Cc1ccccc1)C(=O)OCC(=O)c1ccccc1 (stereo not given) | 9.1
* Cc1ccc(N2CCN(C(=S)c3ccc(-c4cccc([N+](=O)[O-])c4)o3)CC2)cc1 | -4.52
* CCCC(=O)Nc1ncnc2c1ncn2[C@@H]1O[C@@H]2COP(=O)(O)O[C@H]2[C@H]1OC(=O)CCC | 4.52
